- ASSAY_NOTES: protein stability index of a GFP-peptide fusion (GPS, HEK-293T) (PSI 1-6); higher = more stable;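 note: 24-mer peptide tiles fused after GFP, lentivirally expressed, FACS-sorted into six equal bins by GFP/DsRed ratio, decoded by Illumina sequencing, PSI is the read-weighted mean bin number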
- CONDITION_DESCRIPTION: treatment: DMSO; c terminus: a fixed tail appended
protein stability index values for the sequences below.
Write no unit; give the number alone.

Input line: Dear colleague, I am looking for the recorded protein stability index of the following sequence: PIGCDGVLFSTHTLDKCGICQGDG [ADAMTSL2]
Output line: 3.62

Input line: Next up: QAKEELARMLREYQELMSLKLALD [KRT71]
Output line: 2.61

Input line: Next up: MATEGLHENETLASLKSEAESLKG [GNB5]
Output line: 5.31

Input line: Next up: RRSFLNAHHRSGAQVFPESPESES [GNAS]
Output line: 5.02

Input line: Next up: IEERKQGLEQFINKVAGHPLAQNE [SNX3]
Output line: 4.54

Input line: Next up: ALNQEFLATRSNEKQELQELNDRF [PRPH]
Output line: 4.24

Input line: Next up: REAKMICFKSVAKTPYDTSRRQEK [ELOA2]
Output line: 3.97

Input line: Next up: PSTLGRCKAFSTCVSHLIIVTVHY [OR10K2]
Output line: 3.07

***
Input line: Dear colleague, I am looking for the recorded protein stability index of the following sequence: CGQPCSQKSGLIRHQKIHSGEKPY [ZNF649]
Output line: 3.02
